system_under_test: hERG channel (Homo sapiens)
Sequence (Q12809 whole entry): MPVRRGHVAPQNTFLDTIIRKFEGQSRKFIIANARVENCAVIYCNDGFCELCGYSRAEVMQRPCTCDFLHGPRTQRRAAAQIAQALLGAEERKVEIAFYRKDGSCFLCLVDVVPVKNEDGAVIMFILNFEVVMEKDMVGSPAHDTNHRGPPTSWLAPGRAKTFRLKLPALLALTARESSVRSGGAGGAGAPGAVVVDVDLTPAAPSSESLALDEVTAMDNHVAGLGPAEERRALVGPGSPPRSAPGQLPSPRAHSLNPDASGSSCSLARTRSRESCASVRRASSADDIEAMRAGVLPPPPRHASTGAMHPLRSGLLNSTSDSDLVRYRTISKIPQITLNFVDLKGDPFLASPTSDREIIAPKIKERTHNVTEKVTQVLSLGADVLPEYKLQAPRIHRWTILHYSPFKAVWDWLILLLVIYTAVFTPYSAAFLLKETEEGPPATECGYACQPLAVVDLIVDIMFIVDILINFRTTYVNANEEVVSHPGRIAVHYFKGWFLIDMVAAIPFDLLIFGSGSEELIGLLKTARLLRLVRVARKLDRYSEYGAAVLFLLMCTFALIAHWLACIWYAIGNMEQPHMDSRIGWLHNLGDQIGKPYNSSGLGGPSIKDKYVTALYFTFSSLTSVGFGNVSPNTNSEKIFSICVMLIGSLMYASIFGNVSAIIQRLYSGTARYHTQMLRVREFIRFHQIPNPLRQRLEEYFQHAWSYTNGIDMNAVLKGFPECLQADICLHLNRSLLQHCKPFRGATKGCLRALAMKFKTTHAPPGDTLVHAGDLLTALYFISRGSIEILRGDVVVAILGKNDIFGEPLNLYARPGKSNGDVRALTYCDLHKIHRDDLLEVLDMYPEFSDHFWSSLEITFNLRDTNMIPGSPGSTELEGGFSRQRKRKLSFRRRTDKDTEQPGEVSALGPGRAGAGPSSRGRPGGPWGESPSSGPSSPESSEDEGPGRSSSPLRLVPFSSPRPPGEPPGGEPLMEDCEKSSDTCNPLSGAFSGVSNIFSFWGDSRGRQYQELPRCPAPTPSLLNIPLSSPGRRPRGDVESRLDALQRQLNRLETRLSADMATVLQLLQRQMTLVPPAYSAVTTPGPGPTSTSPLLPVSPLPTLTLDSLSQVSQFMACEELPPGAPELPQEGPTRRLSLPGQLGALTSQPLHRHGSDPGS
protocol_details: hERG electrophysiology, automated whole-cell patch clamp (Patchliner) in CHO-K1 cells stably expressing hERG
pIC50: −log10 of the molar value.
recorded_endpoint: pIC50

INSERT INTO assay_data (compound, recorded_endpoint, recorded_value) VALUES
  ('CC1(N)CCN(c2cc(Cl)c(Cl)cc2O)CC1', 'pIC50', '> 4.52'),
  ('O=C(NC1CNC1)C1CCNC(c2c(O)ccc(Cl)c2Cl)C1 (stereo not drawn)', 'pIC50', '< 4.52'),
  ('NC(=O)CC1CC(c2c(O)ccc(Cl)c2Cl)CCN1 (stereo not drawn)', 'pIC50', '< 4.52'),
  ('NCC1CCN(c2cc(Cl)c(Cl)cc2O)CC1', 'pIC50', '> 4.52'),
  ('NCC(=O)N1CCC(c2c(O)cc(Cl)c(Cl)c2Cl)CC1', 'pIC50', '> 4.52'),
  ('NC(=O)[C@H]1C[C@@H](c2cc(Cl)c(Cl)cc2O)CCN1 (relative stereo)', 'pIC50', '< 4.52'),
  ('O=S(=O)(NCC1CC(c2c(O)ccc(Cl)c2Cl)CCN1)c1ccccc1 (stereo not drawn)', 'pIC50', '> 4.52'),
  ('Oc1ccc(Cl)c(Cl)c1C1CCNC(c2cn[nH]c2)C1 (stereo not drawn)', 'pIC50', '< 4.52'),
  ('CNC1CCN(c2cc(Cl)c(Cl)cc2O)CC1', 'pIC50', '> 4.52'),
  ('Oc1cc(Cl)c(Cl)cc1C1CCCNCC1 (stereo not drawn)', 'pIC50', '> 4.52'),
  ('NCC1CN(c2cc(Cl)c(Cl)cc2O)C1', 'pIC50', '> 4.52'),
  ('CS(=O)(=O)NC[C@@H]1C[C@H](c2c(O)ccc(Cl)c2Cl)CCN1 (single isomer, unassigned)', 'pIC50', '< 4.52'),
  ('CC(=O)NC[C@@H]1CC(c2c(O)ccc(Cl)c2Cl)CCN1 (single isomer, unassigned)', 'pIC50', '< 4.52'),
  ('Oc1cc(Cl)c(Cl)cc1C1CCCNC1 (stereo not drawn)', 'pIC50', '> 4.52'),
  ('Oc1cc(Cl)cc(Cl)c1C1CCNCC1', 'pIC50', '> 4.52'),
  ('Oc1c(C2CCNCC2)cc(Cl)c(Cl)c1Cl', 'pIC50', '> 4.52'),
  ('CNC(=O)C[C@@H]1C[C@H](c2c(O)ccc(Cl)c2Cl)CCN1 (single isomer, unassigned)', 'pIC50', '< 4.52'),
  ('CNC(=O)C1CC(c2c(O)ccc(Cl)c2Cl)CCN1 (stereo not drawn)', 'pIC50', '< 4.52');
